biological target: Programmed cell death protein 1/Programmed cell death 1 ligand 1 (Homo sapiens); assay: Inhibition of human PD-1/PDL1 protein-protein interaction by HTRF assay; type: protein-complex assay
Sequence (Q15116 whole entry): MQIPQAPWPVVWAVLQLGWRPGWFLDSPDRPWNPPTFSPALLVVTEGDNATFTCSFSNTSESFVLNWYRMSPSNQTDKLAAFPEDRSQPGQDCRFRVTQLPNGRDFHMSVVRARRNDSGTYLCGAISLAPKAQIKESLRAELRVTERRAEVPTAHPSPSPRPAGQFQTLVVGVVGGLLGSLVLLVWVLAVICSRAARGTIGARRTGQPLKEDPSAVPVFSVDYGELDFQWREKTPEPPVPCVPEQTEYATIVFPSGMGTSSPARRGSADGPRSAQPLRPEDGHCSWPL
Sequence (Q9NZQ7 whole entry): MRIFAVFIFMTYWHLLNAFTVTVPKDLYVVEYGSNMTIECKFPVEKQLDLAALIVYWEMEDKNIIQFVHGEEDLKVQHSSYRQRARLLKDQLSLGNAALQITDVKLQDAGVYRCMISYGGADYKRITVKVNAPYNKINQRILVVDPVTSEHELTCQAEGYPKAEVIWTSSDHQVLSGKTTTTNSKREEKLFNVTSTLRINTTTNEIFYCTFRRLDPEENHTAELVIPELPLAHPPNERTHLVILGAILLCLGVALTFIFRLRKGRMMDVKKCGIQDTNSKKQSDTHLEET
pIC50: −log10 of the molar value.
Below, each of the compounds is paired with its reported pIC50 value.
readout.label: pIC50

>  <smiles.string>
Cc1c(-c2cccc(CC(N)=O)c2)cccc1-c1nc2c(s1)CNCC2

>  <readout.label>
pIC50

>  <assay.value>
≥ 7.00

$$$$
>  <smiles.string>
Cn1c(C(=O)Nc2cccc(-c3ccc4c(c3)OCCO4)c2C#N)nc2c1CCN(CCO)C2

>  <readout.label>
pIC50

>  <assay.value>
≥ 7.00

$$$$
>  <smiles.string>
Cc1c(-c2ccccc2)cccc1-c1nc2cc(CNCCO)c(OCCN3CCOCC3)cc2o1

>  <readout.label>
pIC50

>  <assay.value>
≥ 8.00

$$$$
>  <smiles.string>
N#Cc1c(Nc2nccc3nc(CNCCO)cnc23)cccc1C1=CCCCC1

>  <readout.label>
pIC50

>  <assay.value>
≥ 8.00

$$$$
>  <smiles.string>
Cc1c(NC(=O)c2nc3c(s2)CNCC3)cccc1-c1cccc2[nH]ncc12

>  <readout.label>
pIC50

>  <assay.value>
≥ 7.00

$$$$

The reported numbers originate from ChEMBL document CHEMBL5223128.
